# target or test system: ~100 representative kinases (Homo sapiens)
# Construct: Recombinant protein kinase domains with a concentration of 2 μM
# protocol details: DSF 100 kinase selectivity screen;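 further: compound tested at 20 µM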
# Format: binding
# experimental parameters: protein FGFR2; average of three replicates
readout name: dTm (K)

[a] O=C(Nc1cccc(-c2c[nH]c3ncnc(N4CCOCC4)c23)c1)C1(C(=O)Nc2cccc3c2CCC3)CC1
[b] CC(C)(C)c1cc(NC(=O)Nc2cccc(-c3c[nH]c4ncnc(N5CCOCC5)c34)c2)n(-c2ccc3ncccc3c2)n1
Hi there! Just curious which has the higher dTm between a and b . Lab note: record the label of whichever item you select.
b
(b: 10.62 K, a: 2.75 K)

* * *

# target or test system: ~100 representative kinases (Homo sapiens)
# Construct: Recombinant protein kinase domains with a concentration of 2 μM
# protocol details: DSF 100 kinase selectivity screen;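 further: compound tested at 20 µM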
# Assay type: binding
# experimental parameters: protein GPRK5; average of three replicates
readout name: dTm (K)

# count of solved cases: 2
>>> numeric_readout("CCSc1nc(NC)c2c(-c3cccc(NC(=O)Nc4cc(C(C)(C)C)nn4-c4ccc(C)cc4)c3)c[nH]c2n1")
-0.61
>>> numeric_readout("CCNc1nc(Nc2cc(F)c(C(=O)N3CCOCC3)cc2OC)ncc1C(F)(F)F")
0.32

[I] O=C(Nc1cccc(-c2c[nH]c3ncnc(N4CCOCC4)c23)c1)C1(C(=O)Nc2ccc(F)c(Br)c2F)CC1
[II] Cc1cc(NC(=O)C2(C(=O)Nc3cccc(-c4c[nH]c5ncnc(N6CCOCC6)c45)c3)CC2)ccc1F
Hi! Which is lower in terms of dTm, the first one I or the second one II ? Lab note: record the label of whichever item you select.
I
(I: 0.25 K, II: 1.05 K)

[I] O=C(Nc1cccc(-c2c[nH]c3ncnc(N4CCOCC4)c23)c1)C1(C(=O)Nc2cccc3c2CCC3)CC1
[II] COc1ccc(NC(=O)C2(C(=O)Nc3cccc(-c4c[nH]c5ncnc(N6CCOCC6)c45)c3)CC2)cc1
[III] Cc1ccc(NC(=O)C2(C(=O)Nc3cccc(-c4c[nH]c5ncnc(N6CCOCC6)c45)c3)CC2)cc1
Sort entries by dTm from minimum to maximum value. Please write the labels in the order that was asked for.
I, II, III

* * *

# target or test system: ~100 representative kinases (Homo sapiens)
# Construct: Recombinant protein kinase domains with a concentration of 2 μM
# protocol details: DSF 100 kinase selectivity screen;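 further: compound tested at 20 µM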
# Type: binding
# experimental parameters: Protein STK38L; DSF; average of three replicates
readout name: dTm (K)

# count of solved cases: 3
>>> numeric_readout("O=C(Nc1cccc(-c2c[nH]c3ncnc(N4CCOCC4)c23)c1)C1(C(=O)Nc2cc(Br)c(F)cc2F)CC1")
0.00
>>> numeric_readout("O=C(Nc1cc(F)cc(Br)c1)C1(C(=O)Nc2cccc(-c3c[nH]c4ncnc(N5CCOCC5)c34)c2)CC1")
-0.80
>>> numeric_readout("Cn1cc(-c2c[nH]c3ncnc(N4CCOCC4)c23)cc1C#N")
0.0435

[A] O=C(Nc1cccc(-c2c[nH]c3ncnc(N4CCOCC4)c23)c1)c1cccn(-c2ccc(F)cc2)c1=O
[B] Cc1ccc(-n2nc(C(C)(C)C)cc2NC(=O)Nc2cccc(-c3c[nH]c4nc(Cl)nc(N5CCOCC5)c34)c2)cc1
[C] O=C(Nc1ccc(Cl)cc1)C1(C(=O)Nc2cccc(-c3c[nH]c4ncnc(N5CCOCC5)c34)c2)CC1
[D] O=C(Nc1cccc(-c2c[nH]c3ncnc(N4CCOCC4)c23)c1)C1(C(=O)Nc2cccc3c2CCC3)CC1
Sort entries by dTm from minimum to maximum value. Please write the labels in the order that was asked for.
B, A, D, C
(B: -1.01 K, A: -0.37 K, D: 0.00 K, C: 0.49 K)

Every entry's value here was drawn from paper PMC12136037.
